target: Amyloid-beta precursor protein (Homo sapiens) (UniProt P05067); assay: Inhibition of Abeta42 (unknown origin) aggregation at early stage incubated for 8 hrs by Thioflavin-T fluorescence assay
Sequence (P05067 whole entry): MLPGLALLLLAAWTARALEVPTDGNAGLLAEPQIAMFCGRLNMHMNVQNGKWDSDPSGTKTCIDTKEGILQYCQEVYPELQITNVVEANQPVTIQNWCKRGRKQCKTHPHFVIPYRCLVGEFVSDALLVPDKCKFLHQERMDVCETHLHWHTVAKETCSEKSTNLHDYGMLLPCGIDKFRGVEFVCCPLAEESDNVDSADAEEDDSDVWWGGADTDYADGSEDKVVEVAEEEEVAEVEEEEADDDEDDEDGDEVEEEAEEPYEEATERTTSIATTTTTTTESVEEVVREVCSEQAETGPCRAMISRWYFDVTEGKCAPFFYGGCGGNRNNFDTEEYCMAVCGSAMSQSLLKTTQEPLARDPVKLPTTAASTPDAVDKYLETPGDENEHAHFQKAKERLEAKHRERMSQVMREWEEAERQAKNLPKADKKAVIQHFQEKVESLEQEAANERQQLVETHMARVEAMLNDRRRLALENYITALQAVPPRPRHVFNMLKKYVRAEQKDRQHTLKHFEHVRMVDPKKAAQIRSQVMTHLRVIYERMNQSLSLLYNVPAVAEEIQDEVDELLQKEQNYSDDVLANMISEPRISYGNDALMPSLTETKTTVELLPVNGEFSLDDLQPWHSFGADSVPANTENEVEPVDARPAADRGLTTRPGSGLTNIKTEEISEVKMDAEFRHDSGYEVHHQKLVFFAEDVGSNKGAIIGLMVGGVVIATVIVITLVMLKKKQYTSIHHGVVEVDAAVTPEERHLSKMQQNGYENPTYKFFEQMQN
Active and inactive are the calls of the source. The rule behind the calls is not given here.
READOUT: inhibition

COc1cc(/C=C\C(=O)OC[C@@]23CC[C@@]4(C(=O)O)CCC(C)(C)C[C@H]4C2=CC[C@@H]2[C@@]4(C)CC[C@H](O)C(C)(C)[C@@H]4CC[C@]23C)ccc1O : Active
COc1cc(/C=C/C(=O)OC[C@@]23CC[C@@]4(C(=O)O)CCC(C)(C)C[C@H]4C2=CC[C@@H]2[C@@]4(C)CC[C@H](O)C(C)(C)[C@@H]4CC[C@]23C)ccc1O : Active
COc1cc(/C=C/C(=O)OC[C@@]23CC[C@@]4(C(=O)O)CC[C@@H](C)[C@H](C)[C@H]4C2=CC[C@@H]2[C@@]4(C)CC[C@H](O)C(C)(C)[C@@H]4CC[C@]23C)ccc1O : Active
COc1cc(/C=C\C(=O)OC[C@@]23CC[C@@]4(C(=O)O)CC[C@@H](C)[C@H](C)[C@H]4C2=CC[C@@H]2[C@@]4(C)CC[C@H](O)C(C)(C)[C@@H]4CC[C@]23C)ccc1O : Active

###

molecular target: Amyloid-beta precursor protein (Homo sapiens); experiment: Inhibition of HFIP pretreated Abeta42 (unknown origin) aggregation at nucleation phase assessed as time required for nucleation of Abeta42 at 50 uM by Thioflavin-T fluorescence assay
READOUT: TIME (h)

COc1cc(/C=C\C(=O)OC[C@@]23CC[C@@]4(C(=O)O)CCC(C)(C)C[C@H]4C2=CC[C@@H]2[C@@]4(C)CC[C@H](O)C(C)(C)[C@@H]4CC[C@]23C)ccc1O : 10
COc1cc(/C=C\C(=O)OC[C@@]23CC[C@@]4(C(=O)O)CC[C@@H](C)[C@H](C)[C@H]4C2=CC[C@@H]2[C@@]4(C)CC[C@H](O)C(C)(C)[C@@H]4CC[C@]23C)ccc1O : 10
COc1cc(/C=C/C(=O)OC[C@@]23CC[C@@]4(C(=O)O)CCC(C)(C)C[C@H]4C2=CC[C@@H]2[C@@]4(C)CC[C@H](O)C(C)(C)[C@@H]4CC[C@]23C)ccc1O : 10
COc1cc(/C=C/C(=O)OC[C@@]23CC[C@@]4(C(=O)O)CC[C@@H](C)[C@H](C)[C@H]4C2=CC[C@@H]2[C@@]4(C)CC[C@H](O)C(C)(C)[C@@H]4CC[C@]23C)ccc1O : 12

Entry source: ChEMBL document CHEMBL4041484
